Reference source: ChEMBL document CHEMBL6134793

Assay: Cytotoxicity against human Caco-2 cells assessed as inhibition of cell viability incubated for 48 hrs by Cell Titer GLO assay
Type: toxicity, cell-based
READOUT: IC50 at 48 h (µg/mL)
State the answer as a number, implicitly in µg/mL.

Query (molecule): CC[C@H](NC(=O)[C@@H](O)[C@@H](C)CC)C(=O)N[C@@H](CC(C)C)C(=O)N[C@H](CCCN)C(=O)N[C@H](C(=O)N[C@H](C(=O)N[C@H](C(=O)N[C@H](CCCCN)C(=O)N[C@H](C(=O)N[C@H](C(=O)N[C@@H](CCCCN)C(=O)N[C@H](Cc1ccc(O)cc1)C(=O)N[C@@H](CC(C)C)C(=O)N[C@H](CO)C(C)C)C(C)C)C(C)C)C(C)C)[C@@H](C)CC)[C@@H](C)CC ; field requested: IC50 at 48 h
10

Item under review: C/C=C(/NC(=O)[C@@H](O)[C@@H](C)CC)C(=O)N[C@@H](CC(C)C)C(=O)N[C@H](CCCN)C(=O)N[C@H](C(=O)N[C@H](C(=O)N[C@H](C(=O)N[C@H](CCCCN)C(=O)N[C@H](C(=O)N[C@H](C(=O)N[C@@H](CCCCN)C(=O)N[C@H](Cc1ccc(O)cc1)C(=O)N[C@@H](CC(C)C)C(=O)N[C@H](CO)C(C)C)C(C)C)C(C)C)C(C)C)C(C)C)[C@@H](C)CC . Reported IC50 at 48 h?
25.7

What value of measured IC50 at 48 h is listed for CC[C@H](NC(=O)[C@@H](NC(C)=O)[C@@H](C)CC)C(=O)N[C@@H](CC(C)C)C(=O)N[C@H](CCCN)C(=O)N[C@H](C(=O)N[C@H](C(=O)N[C@H](C(=O)N[C@H](CCCCN)C(=O)N[C@H](C(=O)N[C@H](C(=O)N[C@@H](CCCCN)C(=O)N[C@H](Cc1ccc(O)cc1)C(=O)N[C@@H](CC(C)C)C(=O)N[C@H](C(N)=O)C(C)C)C(C)C)C(C)C)C(C)C)[C@@H](C)CC)[C@@H](C)CC ?
14.9

* * *

Assay: Hemolytic activity in human erythrocytes at 128 ug/ml measured after 1 hr by absorbance based assay relative to control
Type: toxicity, cell-based, Erythrocyte
Settings: at 128 µg/mL, read-out: Activity
Hi there, I'd appreciate the recorded hemolysis at 1 h, 128 ug/ml for every entry that follows.
Write the answer as a number in %, unit excluded.

hemolysis at 1 h, 128 ug/ml for C/C=C(/NC(=O)[C@@H](O)[C@@H](C)CC)C(=O)N[C@@H](CC(C)C)C(=O)N[C@H](CCCN)C(=O)N[C@H](C(=O)N[C@H](C(=O)N[C@H](C(=O)N[C@H](CCCCN)C(=O)N[C@H](C(=O)N[C@H](C(=O)N[C@@H](CCCCN)C(=O)N[C@H](Cc1ccc(O)cc1)C(=O)N[C@@H](CC(C)C)C(=O)N[C@H](CO)C(C)C)C(C)C)C(C)C)C(C)C)C(C)C)[C@@H](C)CC ?
1.65

Give the measured hemolysis at 1 h, 128 ug/ml of CC[C@H](C)[C@H](O)C(=O)N[C@H](C(=O)N[C@@H](CC(C)C)C(=O)N[C@H](CCCN)C(=O)N[C@H](C(=O)N[C@H](C(=O)N[C@H](C(=O)N[C@H](CCCCN)C(=O)N[C@H](C(=O)N[C@H](C(=O)N[C@@H](CCCCN)C(=O)N[C@H](Cc1ccc(O)cc1)C(=O)N[C@@H](CC(C)C)C(=O)N[C@H](CO)C(C)C)C(C)C)C(C)C)C(C)C)[C@@H](C)CC)[C@@H](C)CC)C(C)C .
53.1

Item CC[C@H](C)[C@H](O)C(=O)N[C@@H](CO)C(=O)N[C@@H](CC(C)C)C(=O)N[C@H](CCCN)C(=O)N[C@H](C(=O)N[C@H](C(=O)N[C@H](C(=O)N[C@H](CCCCN)C(=O)N[C@H](C(=O)N[C@H](C(=O)N[C@@H](CCCCN)C(=O)N[C@H](Cc1ccc(O)cc1)C(=O)N[C@@H](CC(C)C)C(=O)N[C@H](CO)C(C)C)C(C)C)C(C)C)C(C)C)[C@@H](C)CC)[C@@H](C)CC has what recorded hemolysis at 1 h, 128 ug/ml?
1.2
